- method: Half life in BCRP-/- mouse at 2 mg/kg, po
- Assay type: ADME, organism-based
- Parameters: dose 2 mg/kg, route oral
- protocol conditions: in vivo
value kind: half-life (h)
I only need the number, in h, no unit after it.

GET /value?item= "O=c1c(-c2ccc(O)cc2)coc2cc(O)cc(O)c12" &field=half-life returns 3.8

###

- method: Elimination rate constant in BCRP-/- mouse at 2 mg/kg, po
- Assay type: ADME, organism-based
- Design: dose 2 mg/kg, route oral
- protocol conditions: in vivo
value kind: k el (s⁻¹)
I only need the number, in s⁻¹, no unit after it.

GET /value?item= O=c1c(-c2ccc(O)cc2)coc2cc(O)cc(O)c12 [GENISTEIN] &field=k el returns 7.5e-05
